settings: 313.15 K; 101.33 kPa; Liquid; Anton-Paar DSA48 sound analyzer
Entries and their measured speed of sound follow.
Record the value in m/s, omitting the unit from your answer.

Consider the following illustrative entries.
{"columns": ["molecule", "unit_symbol", "speed of sound"],
 "data": [
  ["C[N+](=O)[O-] [nitromethane]", "m/s", 1261.1],
  ["CCCCn1cc[n+](C)c1.F[B-](F)(F)F [1-butyl-3-methylimidazolium tetrafluoroborate]", "m/s", 1532.5],
  ["CCCCn1cc[n+](C)c1.COS(=O)(=O)[O-] [1-butyl-3-methylimidazolium methyl sulfate]", "m/s", 1621.1],
  ["CCCCn1cc[n+](C)c1.O=S(=O)([O-])C(F)(F)F [1-butyl-3-methylimidazolium trifluoromethanesulfonate]", "m/s", 1358.8],
  ["CCOS(=O)(=O)[O-].CCn1cc[n+](C)c1 [1-ethyl-3-methylimidazolium ethyl sulfate]", "m/s", 1641.6],
  ["CCCC[n+]1cccc(C)c1.F[B-](F)(F)F [1-butyl-3-methylpyridinium tetrafluoroborate]", "m/s", 1550.7],
  ["CCn1cc[n+](C)c1.O=S(=O)([O-])C(F)(F)F [1-ethyl-3-methylimidazolium trifluoromethanesulfonate]", "m/s", 1402.1]
]}

# ---- query molecule ----
Given item CCCCCCn1cc[n+](C)c1.F[B-](F)(F)F [1-hexyl-3-methylimidazolium tetrafluoroborate] , the value recorded as its speed of sound is 1482.3
